Biological target: JAK2(JH1domain-catalytic) (Homo sapiens, UniProt O60674)
Construct: JAK2(JH1domain-catalytic); purchased Eurofins DiscoverX KINOMEscan (scanTK)
Sequence (O60674 849-1132 limits assumed): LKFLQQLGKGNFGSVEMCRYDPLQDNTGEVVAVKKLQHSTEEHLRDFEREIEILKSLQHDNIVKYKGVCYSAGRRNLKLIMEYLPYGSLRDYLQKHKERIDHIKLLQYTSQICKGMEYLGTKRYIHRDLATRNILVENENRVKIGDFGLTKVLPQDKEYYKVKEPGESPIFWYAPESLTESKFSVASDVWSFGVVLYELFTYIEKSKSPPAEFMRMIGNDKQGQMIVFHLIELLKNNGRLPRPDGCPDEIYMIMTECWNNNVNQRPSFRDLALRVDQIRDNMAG
Assay: KINOMEscan ScanTK
Format: binding
Conditions: @1000nM, read-out: %Control
Entries and their measured remaining binding at 1 µM follow.
Provide only the numeric value, understood in %.

>  <molecule>
COC(=O)c1cnc(S(C)(=O)=O)nc1N1CCCC(n2nc(-c3ccc(Oc4ccccc4)cc3)c3c(N)ncnc32)C1 (centres unmarked)

>  <unit annotation>
%

>  <remaining binding at 1 µM>
82

$$$$
>  <molecule>
C=CC(=O)N1CCC[C@@H](n2nc(-c3ccc(Oc4ccccc4)cc3)c3c(N)ncnc32)C1 [Compound 1g, Ibrutinib, reference compound]

>  <unit annotation>
%

>  <remaining binding at 1 µM>
100

$$$$

Problem: Suppose we examine the molecule Cc1cnc(S(C)(=O)=O)nc1N1CCCC(n2nc(-c3ccc(Oc4ccccc4)cc3)c3c(N)ncnc32)C1 (centres unmarked) ; what remaining binding at 1 µM value has been reported?
Solution: 87

Problem: Lookup CNC(=O)c1cnc(S(C)(=O)=O)nc1N1CCCC(n2nc(-c3ccc(Oc4ccccc4)cc3)c3c(N)ncnc32)C1 (centres unmarked)
Solution: 86

Problem: Lookup CCOC(=O)c1cnc(S(C)(=O)=O)nc1N1CCC[C@@H](n2nc(-c3ccc(Oc4ccccc4)cc3)c3c(N)ncnc32)C1
Solution: 83
